Biological target: Adrenergic beta3 (Homo sapiens)
Sequence (P13945 whole entry): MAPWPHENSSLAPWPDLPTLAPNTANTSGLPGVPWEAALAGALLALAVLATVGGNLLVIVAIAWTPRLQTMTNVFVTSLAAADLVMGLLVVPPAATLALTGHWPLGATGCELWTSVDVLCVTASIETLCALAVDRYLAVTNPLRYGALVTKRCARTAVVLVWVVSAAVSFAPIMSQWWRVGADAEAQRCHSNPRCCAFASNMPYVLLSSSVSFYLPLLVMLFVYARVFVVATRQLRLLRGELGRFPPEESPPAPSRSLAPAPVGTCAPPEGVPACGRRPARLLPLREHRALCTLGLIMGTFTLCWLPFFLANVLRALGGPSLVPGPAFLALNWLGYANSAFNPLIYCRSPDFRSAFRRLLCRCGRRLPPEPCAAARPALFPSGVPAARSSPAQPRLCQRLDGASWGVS
Please use MET for Ki under 4 µM and NOT MET for everything else, ties included.

input: Is 4 µM strictly greater than the compound's reported Ki? compound: CCN(CCCNC(=O)c1ccc(-c2cccs2)cc1)CCNC(=O)c1cc(Br)cc(OC)c1OC [9a]
output: MET

input: Is 4 µM strictly greater than the compound's reported Ki? compound: CCN(CCCNC(=O)c1ccc2ccccc2c1)CCNC(=O)c1cc(Br)cc(OC)c1OC [21a]
output: NOT MET

input: Is 4 µM strictly greater than the compound's reported Ki? compound: CCCN(CCCNC(=O)c1ccc(-c2cccs2)cc1)CCNC(=O)c1cc(Br)cc(OC)c1OC [20a]
output: MET

input: Is 4 µM strictly greater than the compound's reported Ki? compound: CCN(CCCNC(=O)c1cc2ccccc2n1C)CCNC(=O)c1cc(Br)cc(OC)c1OC [21j]
output: NOT MET

input: Is 4 µM strictly greater than the compound's reported Ki? compound: CCN(CCCNC(=O)c1cn2ccccc2n1)CCNC(=O)c1cc(Br)cc(OC)c1OC [21e]
output: NOT MET

input: Is 4 µM strictly greater than the compound's reported Ki? compound: CCN(CCCNC(=O)c1ccc(-c2ccsc2)cc1)CCNC(=O)c1cc(Br)cc(OC)c1OC [21g]
output: MET

input: Is 4 µM strictly greater than the compound's reported Ki? compound: CCN(CCCNC(=O)c1ccsc1)CCNC(=O)c1cc(Br)cc(OC)c1OC [21i]
output: NOT MET

---

Target: Histamine H2 (Homo sapiens)
Sequence (P25021 whole entry): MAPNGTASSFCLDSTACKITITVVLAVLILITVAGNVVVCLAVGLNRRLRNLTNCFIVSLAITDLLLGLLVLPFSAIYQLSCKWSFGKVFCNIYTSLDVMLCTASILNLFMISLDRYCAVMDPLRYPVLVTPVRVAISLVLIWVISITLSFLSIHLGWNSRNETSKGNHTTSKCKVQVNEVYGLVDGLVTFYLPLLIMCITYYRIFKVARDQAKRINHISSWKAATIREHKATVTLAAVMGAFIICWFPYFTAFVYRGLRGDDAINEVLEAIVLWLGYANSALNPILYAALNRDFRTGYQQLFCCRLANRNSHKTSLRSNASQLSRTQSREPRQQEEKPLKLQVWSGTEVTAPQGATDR
quantityMeasured: pKi
Lab note — pKi values are minus log10 of concentrations in M.

input: Field request: pKi | item: CCN(CCCNC(=O)c1ccc(-c2ccsc2)cc1)CCNC(=O)c1cc(Br)cc(OC)c1OC [21g]
output: 5.61

input: Field request: pKi | item: CCN(CCCNC(=O)c1cc2ccccc2n1C)CCNC(=O)c1cc(Br)cc(OC)c1OC [21j]
output: 5.43

input: Field request: pKi | item: CCCN(CCCNC(=O)c1ccc(-c2cccs2)cc1)CCNC(=O)c1cc(Br)cc(OC)c1OC [20a]
output: 5.78

input: Field request: pKi | item: `CCN(CCCNC(=O)c1ccc(-c2cccs2)cc1)CCNC(=O)c1cc(Br)cc(OC)c1OC`
output: 5.58

input: Field request: pKi | item: CCN(CCCNC(=O)c1ccc2ccccc2c1)CCNC(=O)c1cc(Br)cc(OC)c1OC [21a]
output: 5.55

---

Reported pKi for target or system Serotonin 5-HT1B (Homo sapiens), by entry.
Lab note — pKi values are minus log10 of concentrations in M.

input: Field request: pKi | item: CCN(CCCNC(=O)c1ccc(-c2cccs2)cc1)CCNC(=O)c1cc(Br)cc(OC)c1OC [9a]
output: 6.04

input: Field request: pKi | item: CCN(CCCNC(=O)c1ccc(-c2ccsc2)cc1)CCNC(=O)c1cc(Br)cc(OC)c1OC [21g]
output: 5.98

input: Field request: pKi | item: CCCN(CCCNC(=O)c1ccc(-c2cccs2)cc1)CCNC(=O)c1cc(Br)cc(OC)c1OC [20a]
output: 5.98

---

Target: human D3 receptors (Homo sapiens)
Sequence (P35462 whole entry): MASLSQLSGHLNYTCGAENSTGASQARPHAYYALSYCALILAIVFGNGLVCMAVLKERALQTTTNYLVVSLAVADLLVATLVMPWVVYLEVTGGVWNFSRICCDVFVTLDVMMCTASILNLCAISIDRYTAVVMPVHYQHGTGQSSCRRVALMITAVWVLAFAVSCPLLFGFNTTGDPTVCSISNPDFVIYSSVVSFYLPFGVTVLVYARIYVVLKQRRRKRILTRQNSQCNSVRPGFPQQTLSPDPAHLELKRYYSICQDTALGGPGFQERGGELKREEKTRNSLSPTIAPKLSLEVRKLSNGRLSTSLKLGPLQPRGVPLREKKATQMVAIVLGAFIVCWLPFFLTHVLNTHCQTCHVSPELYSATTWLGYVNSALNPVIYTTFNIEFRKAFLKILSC
Assay: Radioligand binding assay with [125I]IABN, D3 receptor
Design: expressed in transfected cells; host or cells: HEK293
Settings: [125I]IABN, D3 receptors expressed in HEK cells; mean ± SEM, three experiments; HCl salts; read-out: Ki ± SEM (nM) D3
quantityMeasured: log10 Ki (log10 of the value in nM)
Values reflect log10 of reported Ki (nM).

input: Which measured log10 Ki belongs to CCN(CCCNC(=O)c1ccc2ccccc2c1)CCNC(=O)c1cc(Br)cc(OC)c1OC [21a] , tested on human D3 receptors (Homo sapiens)?
output: 0.08

input: Which measured log10 Ki belongs to `CCN(CCCCN(C)C)CCNC(=O)c1cc(Br)cc(OC)c1OC` , tested on human D3 receptors (Homo sapiens)?
output: 3.21

input: Which measured log10 Ki belongs to CCN(CCCNC(=O)c1cccc(N(C)C)c1)CCNC(=O)c1cc(Br)cc(OC)c1OC [21h] , tested on human D3 receptors (Homo sapiens)?
output: 1.05

input: Which measured log10 Ki belongs to CCN(CCCCSc1nnc(-c2ccccc2)n1C)CCNC(=O)c1cc(Br)cc(OC)c1OC [11a] , tested on human D3 receptors (Homo sapiens)?
output: 2.10

input: Which measured log10 Ki belongs to CCCN(CCCNC(=O)c1ccc(-c2cccs2)cc1)CCNC(=O)c1cc(Br)cc(OC)c1OC [20a] , tested on human D3 receptors (Homo sapiens)?
output: 0.43

input: Which measured log10 Ki belongs to CCN(CCCNC(=O)c1ccnc2ccccc12)CCNC(=O)c1cc(Br)cc(OC)c1OC [21b] , tested on human D3 receptors (Homo sapiens)?
output: 1.12

input: Which measured log10 Ki belongs to COc1cc(Br)cc(C(=O)NCCN(CCCNC(=O)c2ccc(-c3cccs3)cc2)Cc2ccc(F)cc2)c1OC [20c] , tested on human D3 receptors (Homo sapiens)?
output: 2.48

input: Which measured log10 Ki belongs to `CCN(CCCCN(C)C)CCNC(=O)c1cc(CCCF)cc(OC)c1OC` , tested on human D3 receptors (Homo sapiens)?
output: 3.25

input: Which measured log10 Ki belongs to CCN(CCCCCSc1nnc(-c2ccccc2)n1C)CCNC(=O)c1cc(Br)cc(OC)c1OC [11b] , tested on human D3 receptors (Homo sapiens)?
output: 1.35

input: Which measured log10 Ki belongs to CCN(CCCNC(=O)c1ccncc1)CCNC(=O)c1cc(Br)cc(OC)c1OC [21f] , tested on human D3 receptors (Homo sapiens)?
output: 0.79

input: Which measured log10 Ki belongs to `CCN(CCCCNC(=O)c1ccc(-c2cccs2)cc1)CCNC(=O)c1cc(Br)cc(OC)c1OC` , tested on human D3 receptors (Homo sapiens)?
output: 0.90

input: Which measured log10 Ki belongs to `CCN(C)CCNC(=O)c1cc(Br)cc(OC)c1OC` , tested on human D3 receptors (Homo sapiens)?
output: 1.34

input: Which measured log10 Ki belongs to CCN(CCCNC(=O)c1cn2ccccc2n1)CCNC(=O)c1cc(Br)cc(OC)c1OC [21e] , tested on human D3 receptors (Homo sapiens)?
output: 0.45

input: Which measured log10 Ki belongs to CCN(CCCNC(=O)c1ccsc1)CCNC(=O)c1cc(Br)cc(OC)c1OC [21i] , tested on human D3 receptors (Homo sapiens)?
output: 0.85

input: Which measured log10 Ki belongs to CCN(CCCNC(=O)c1cc2ccccc2[nH]1)CCNC(=O)c1cc(Br)cc(OC)c1OC [21d] , tested on human D3 receptors (Homo sapiens)?
output: -0.10

input: Which measured log10 Ki belongs to CCN(CCCNC(=O)c1ccc(-c2ccncc2)cc1)CCNC(=O)c1cc(Br)cc(OC)c1OC [21c] , tested on human D3 receptors (Homo sapiens)?
output: 0.04

input: Which measured log10 Ki belongs to `CCN(CCCCCN(C)C)CCNC(=O)c1cc(Br)cc(OC)c1OC` , tested on human D3 receptors (Homo sapiens)?
output: 2.15

input: Which measured log10 Ki belongs to CCN(CCCNC(=O)c1ccc(-c2ccsc2)cc1)CCNC(=O)c1cc(Br)cc(OC)c1OC [21g] , tested on human D3 receptors (Homo sapiens)?
output: 0.40

---

Reported Ki for target or system Adrenergic beta1 (Homo sapiens), by entry.
Write the answer as a number in µM, unit excluded.

input: Which measured Ki belongs to CCCN(CCCNC(=O)c1ccc(-c2cccs2)cc1)CCNC(=O)c1cc(Br)cc(OC)c1OC [20a] , tested on Adrenergic beta1 (Homo sapiens)?
output: 3.71

input: Which measured Ki belongs to CCN(CCCNC(=O)c1ccc(-c2cccs2)cc1)CCNC(=O)c1cc(Br)cc(OC)c1OC [9a] , tested on Adrenergic beta1 (Homo sapiens)?
output: 5.9

input: Which measured Ki belongs to CCN(CCCNC(=O)c1cn2ccccc2n1)CCNC(=O)c1cc(Br)cc(OC)c1OC [21e] , tested on Adrenergic beta1 (Homo sapiens)?
output: 6.52

input: Which measured Ki belongs to CCN(CCCNC(=O)c1ccc(-c2ccsc2)cc1)CCNC(=O)c1cc(Br)cc(OC)c1OC [21g] , tested on Adrenergic beta1 (Homo sapiens)?
output: 1.89

---

Record form. Attribute: Ki. Fill in for each entry.
Phrase the answer as number then unit, nothing more needed.

input: Which measured Ki belongs to `CCN(CCCNC(=O)c1ccc(-c2cccs2)cc1)CCNC(=O)c1cc(Br)cc(OC)c1OC` , tested on Serotonin 5-HT3 (Homo sapiens, UniProt P46098)?
output: 195 nM

input: Which measured Ki belongs to CCN(CCCNC(=O)c1ccc(-c2ccsc2)cc1)CCNC(=O)c1cc(Br)cc(OC)c1OC [21g] , tested on Serotonin 5-HT3 (Homo sapiens, UniProt P46098)?
output: 195 nM

input: Which measured Ki belongs to CCCN(CCCNC(=O)c1ccc(-c2cccs2)cc1)CCNC(=O)c1cc(Br)cc(OC)c1OC [20a] , tested on Serotonin 5-HT3 (Homo sapiens, UniProt P46098)?
output: 103 nM

input: Which measured Ki belongs to CCN(CCCNC(=O)c1cc2ccccc2n1C)CCNC(=O)c1cc(Br)cc(OC)c1OC [21j] , tested on Serotonin 5-HT3 (Homo sapiens, UniProt P46098)?
output: 246 nM
